Where do the numbers come from? From PubChem BioAssay AID1347076.

assay: qHTS assay for MDR1-selective chemotherapeutics: Primary screen using the drug-selected MDR subline cells KB-V1; settings: KB-V1 MDR cells viability, CellTiter-Glo, 72 h; series mostly up to 46.1 µM; note: nearly all actives have a fitted effect of over 60% in size
The campaign covered roughly 400,000 compounds. About 13,000 (3.2%) were called active. Another 18% or so got no clear call; they are omitted. Calls come from the whole dose curve; as a rule, active = well fitted cell-killing curve with a large enough effect; inconclusive = small, poorly fitted or top-dose-only effect, or effect the other way; inactive = flat fitted curve, though single readings scatter. Only a selection was taken, and actives are over-represented in it overall.
Field 'call' accepts label 1 for active, label 0 for inactive

Req: Look up the recorded call for CC(C)CN1CCC1(C)C(=O)Nc1ccc(OC(F)F)cc1 (stereo unspecified) in this test.
Resp: label 0

Req: In this assay, the call recorded for Cc1ccc(S(=O)(=O)N2C[C@H]3n4c(=O)ccc(=O)n4C[C@H](OC(=O)NC4CCCC4)[C@@]3(O)C2)cc1 was what?
Resp: label 0

Req: Please state the recorded outcome for this compound: Cc1ccc(S(=O)(=O)NCc2nc3ccccc3c(=O)n2N)cc1
Resp: label 0

Req: For Cc1ccc(OCC(=O)Nc2ccccc2Sc2ccc(Cl)cc2)c([N+](=O)[O-])n1 , which call appears in the assay record?
Resp: label 1

Req: I'd appreciate the recorded outcome for COc1ccc(Cn2cc(C(=O)c3ccc(C)cc3)c(=O)c3cc(OC)c(OC)cc32)cc1 from this test.
Resp: label 0

Req: Dear all, I need the recorded test outcome for CCC(C)N(c1ccc(/C=C/c2ccnc3ccccc23)cc1)C(C)CC (stereo unspecified) , thank you.
Resp: label 0

Req: Write down the call the test reported for this compound. Item: O=C(Nc1cccc(OCC(=O)N2CCOCC2)c1)C1CCCCC1
Resp: label 0

Req: Hi, do you know how Cn1c(=O)n(CCc2ccccc2)c(=O)c2c1nc1n2CCCN1c1ccccc1 came out in this test?
Resp: label 0

Req: Assay result, entry CCc1nnc2c3ccccc3nc(N3CCN(c4ccc(C)cc4C)CC3)n12 — outcome?
Resp: label 0

Req: Status in this test for CN(C)C(=S)N=c1ssc(=S)n1Cc1ccco1 ?
Resp: label 1

Req: Could you kindly confirm the outcome this assay logged for CC1(C)C=Cc2c(ccc(C(=O)/C=C/c3ccccc3)c2O)O1 ?
Resp: label 0

Req: Recorded call for CCN(CC)c1nc(C#N)nc(OC)n1 ?
Resp: label 0

Req: Returns: the outcome recorded for O=C(c1ccc(S(=O)(=O)N2CCOCC2)cc1)N1CCN(c2ccccc2)CC1 in this assay.
Resp: label 1

Req: Hello, I am checking results. What call was entered for CCn1c(SCC(=O)NCC2CCCO2)nc2ccccc21 (stereo unspecified) ?
Resp: label 0

Req: Record lookup: outcome of this test for CCS(=O)(=O)c1ccc(O)c(NC(=O)COc2ccc(Cl)cc2)c1 ?
Resp: label 0

Req: Called result for C[C@H](CO)N1C[C@H](C)[C@H](CN(C)C(=O)Nc2ccc3c(c2)OCO3)Oc2ncc(Br)cc2C1=O
Resp: label 0

Req: Would you mind telling me which call this test gave CCc1nc2c(OCC(N)=O)cccn2c1N(C)C(=O)c1ccc(OC)cc1 ?
Resp: label 0

Req: Outcome logged for CCn1cc2nc(SCc3cccc(F)c3)n(CCc3ccccc3)c(=O)c2n1 in this assay:
Resp: label 0

Req: Please indicate how the test categorized Cc1ccccc1C#CC1=CC(=O)CC(C)(C)C1 .
Resp: label 0

Req: Entry CCOC(=O)[C@]12CCCC=C1N(CCC1=CCCCC1)C(=O)[C@H](CC(=O)N1CCOCC1)C2 : call = ?
Resp: label 0

Req: Please state the recorded outcome for this compound: O=C(CN1C(=O)NC(Cc2ccccc2)(Cc2ccccc2)C1=O)NCC1CCCCC1
Resp: label 1
